measurement-target: CAT-1 (carnitine acyltransferase 1) (Rattus norvegicus)
Construct: This preparation is used as the isolated mitochondrial preparation; from tissue; host or cells: rat heart (atria removed), isolated mitochondria
Sequence (Q63704 whole entry): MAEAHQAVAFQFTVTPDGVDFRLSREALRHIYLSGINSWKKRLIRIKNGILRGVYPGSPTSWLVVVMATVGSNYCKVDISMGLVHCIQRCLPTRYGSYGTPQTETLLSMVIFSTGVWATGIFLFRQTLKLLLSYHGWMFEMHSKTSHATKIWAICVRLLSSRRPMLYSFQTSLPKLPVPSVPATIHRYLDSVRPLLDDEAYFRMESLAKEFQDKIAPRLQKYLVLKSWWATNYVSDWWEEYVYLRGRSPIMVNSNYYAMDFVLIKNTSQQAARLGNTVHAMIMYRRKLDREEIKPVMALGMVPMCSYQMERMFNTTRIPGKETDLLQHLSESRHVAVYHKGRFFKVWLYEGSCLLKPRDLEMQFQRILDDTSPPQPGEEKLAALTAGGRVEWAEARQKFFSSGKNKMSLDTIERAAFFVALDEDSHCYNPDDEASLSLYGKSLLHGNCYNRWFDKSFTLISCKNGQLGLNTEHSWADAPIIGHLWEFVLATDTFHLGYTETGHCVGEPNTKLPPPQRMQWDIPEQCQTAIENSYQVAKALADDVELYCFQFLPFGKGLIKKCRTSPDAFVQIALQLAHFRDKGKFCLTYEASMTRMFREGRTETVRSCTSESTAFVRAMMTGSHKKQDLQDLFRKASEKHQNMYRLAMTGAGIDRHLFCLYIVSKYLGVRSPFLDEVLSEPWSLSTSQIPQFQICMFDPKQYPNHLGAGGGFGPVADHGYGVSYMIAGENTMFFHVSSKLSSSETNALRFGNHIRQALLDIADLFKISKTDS
test-details: Primary Screen--Inhibition of CAT-1 in isolated mitochondria
Type: biochemical
measurement-conditions: rat heart mitochondria, reduction of palmitoyl carnitine formation by 50%; read-out: Primary Screen IC50
Hi! Could you tag entries with IC50 below 1000 nM as true (1), and those at or above as false (0)? Much appreciated.

Answered cases to consult:
| compound | category |
| --- | --- |
| Cc1cc(OCCOc2ccc3ccccc3c2)ccc1C(=O)C(=O)O [Example 183, hydrate] | false (0) |
| CCC(C)(C)C(=O)OCc1cccc(C)c1CCCOc1ccc(C(=O)C(=O)O)cc1 [Example 223] | false (0) |
| O=C(O)C(=O)c1ccc(OCCOc2ccc(C(=O)C(=O)O)cc2)cc1 [Example 55] | false (0) |
| CC(C)(C)c1cc(SCCCOc2ccc(C(=O)C(=O)O)cc2)cc(C(C)(C)C)c1O [Example 275] | true (1) |
| O=C(O)C(=O)c1ccc(OCCOc2cccc3ccccc23)cc1 [Example 84] | true (1) |

Now let's try a different one.
Query: Below 1000 nM on IC50? Entry CN(C)CCOC(=O)C(=O)c1ccc(OCCOc2ccc3ccccc3c2)s1 [Example 6]
Reply: true (1)

* * *

measurement-target: CAT-1 (carnitine acyltransferase 1) (Rattus norvegicus)
Construct: This preparation is used as the isolated mitochondrial preparation; from tissue; host or cells: rat heart (atria removed), isolated mitochondria
test-details: Secondary Screen--Inhibition of CAT-1 in intact cardiac myocytes (hypoxia-induced increase in long-chain acylcarnitines)
Assay type: cell-based
measurement-conditions: isolated rat cardiac myocytes, 50% inhibition of hypoxia-induced increase in long-chain acylcarnitines
What IC50 was measured for each of the following?
Give bare numbers, in µM.

As a guide, the following entries are already answered.
| chemical-string | endpoint-result |
| --- | --- |
| O=C(COc1ccc(C(=O)C(=O)O)cc1)NC1CCCCCCC1 | 30 |
| O=C(O)C(=O)c1ccc(OCCOC2CCCCCCC2)s1 | 8 |
| O=C(O)C(=O)c1ccc(OCCOc2ccc3ccccc3c2)cc1 | 3 |
| Cc1cc(C(=O)C(=O)O)ccc1OCCOc1ccc2ccccc2c1 | 7.5 |
| O=C(O)C(=O)c1ccc(OCCCCOc2ccccc2)cc1 | 20 |

Dear reader, for each entry below, please note its IC50.
1. O=C(O)C(=O)c1ccc(C#CCOc2ccc3ccccc3c2)cc1
2. O=C(O)C(=O)c1ccc(OCCSc2ccc3ccccc3c2)cc1

Reply:
[20, 28]

Dear reader, for each entry below, please note its IC50.
1. O=C(O)C(=O)c1ccc(OCCOc2ccc3ccccc3c2)cc1Cl
2. CCC(C)(C)C(=O)OCc1cccc(C)c1/C=C\COc1ccc(C(=O)C(=O)O)cc1

Reply:
1: 9; 2: 9

Dear reader, for each entry below, please note its IC50.
1. O=C(O)C(=O)c1ccc(OCCOc2ccc3ccccc3c2)c(F)c1
2. O=C(O)C(=O)c1ccc(SCCOC2CCCCCCC2)cc1
3. O=C(O)C(=O)c1ccc(OCCOc2ccc3ccccc3c2)s1
4. CCC(C)(C)C(=O)OCc1cccc(C)c1OCCSc1ccc(C(=O)C(=O)O)cc1
5. CN(C)CCOC(=O)C(=O)c1ccc(OCCOc2ccc3ccccc3c2)cc1
6. O=C(O)C(=O)c1ccc(OCCOc2ccc3ccccc3c2)cc1F
7. CCC(C)(C)C(=O)OCc1cccc(C)c1CCCOc1ccc(C(=O)C(=O)O)cc1

Reply:
1: 0.6; 2: 0.3; 3: 1; 4: 0.2; 5: 1; 6: 6; 7: 0.09
